Values compiled from patent US20230398130A1.

Measured Z.LYZ.S, listed per entry for reference.
- System: ISC-enriched organoids
- procedure.summary: Primary screen, 384-well 2.5-D organoid differentiation (ENR+CD, 6 days): carbachol-induced lysozyme secretion (LYZ.S)
- Type: cell-based, murine
- setup.conditions: standard z score; primary screen; 1st of the 4 dose lines of the treatment (dose not given)
Reply with just the number.

Worked set:
| compound | value.observed |
| --- | --- |
| O=C(Nc1ccccc1)N1CCN(c2nc(-c3ccccc3)ns2)CC1 | 0.873 |
| O=C1[C@H](Cc2ccc(O)cc2)N2C(=O)CCN(C(=O)NCc3ccccc3)[C@H]2CN1Cc1cccc2ccccc12 | 1.054 |
| Cc1ccccc1C(=O)Nc1ccc(C(=O)N2CCCC(N(C)C)c3ccccc32)cc1 (centres unmarked) | 0.557 |
| CCc1c2c(nc3ccc(OC(=O)N4CCC(N5CCCCC5)CC4)cc13)-c1cc3c(c(=O)n1C2)COC(=O)[C@]3(O)CC | −0.023 |
| Cc1ccc(NCCCc2ccccc2)c(N)c1 | 1.064 |
| C#Cc1cccc(Nc2ncnc3cc4c(cc23)OCCOCCOCCO4)c1 | 0.609 |
| C[C@H](NC(=O)[C@@H](O)c1cc(F)cc(F)c1)C(=O)N[C@@H]1C(=O)N(C)c2ccccc2-c2ccccc21 | 0.155 |

Below: the item to evaluate.
What Z.LYZ.S value was documented for this compound, `CC#CCn1c(N2CCC[C@@H](N)C2)nc2c1c(=O)n(Cc1nc(C)c3ccccc3n1)c(=O)n2C` ? 0.905
